- system-name: Ribonucleoside-diphosphate reductase RR1 (Homo sapiens, UniProt P23921+P31350+Q7LG56)
- Sequence (P23921 whole entry): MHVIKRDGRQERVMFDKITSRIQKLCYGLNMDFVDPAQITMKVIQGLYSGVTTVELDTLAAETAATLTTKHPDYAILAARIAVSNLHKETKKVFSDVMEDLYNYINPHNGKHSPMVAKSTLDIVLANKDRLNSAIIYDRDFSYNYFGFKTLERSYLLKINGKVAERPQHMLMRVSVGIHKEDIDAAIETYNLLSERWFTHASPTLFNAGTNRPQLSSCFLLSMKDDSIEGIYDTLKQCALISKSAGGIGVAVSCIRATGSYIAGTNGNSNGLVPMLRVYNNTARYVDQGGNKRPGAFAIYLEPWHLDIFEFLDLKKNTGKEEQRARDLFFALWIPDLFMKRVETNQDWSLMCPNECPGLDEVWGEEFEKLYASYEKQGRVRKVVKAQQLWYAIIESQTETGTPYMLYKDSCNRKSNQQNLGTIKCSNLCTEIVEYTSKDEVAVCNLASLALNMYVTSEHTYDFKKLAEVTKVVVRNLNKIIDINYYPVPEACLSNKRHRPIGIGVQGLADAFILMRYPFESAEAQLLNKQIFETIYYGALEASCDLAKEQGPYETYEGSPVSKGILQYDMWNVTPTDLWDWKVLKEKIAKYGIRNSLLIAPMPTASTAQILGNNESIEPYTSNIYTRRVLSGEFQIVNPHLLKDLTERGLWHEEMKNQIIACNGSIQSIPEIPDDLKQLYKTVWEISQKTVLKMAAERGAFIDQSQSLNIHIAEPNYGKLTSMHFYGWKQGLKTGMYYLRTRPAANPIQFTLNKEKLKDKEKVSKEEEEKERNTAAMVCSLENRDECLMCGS
- Sequence (Q7LG56 whole entry): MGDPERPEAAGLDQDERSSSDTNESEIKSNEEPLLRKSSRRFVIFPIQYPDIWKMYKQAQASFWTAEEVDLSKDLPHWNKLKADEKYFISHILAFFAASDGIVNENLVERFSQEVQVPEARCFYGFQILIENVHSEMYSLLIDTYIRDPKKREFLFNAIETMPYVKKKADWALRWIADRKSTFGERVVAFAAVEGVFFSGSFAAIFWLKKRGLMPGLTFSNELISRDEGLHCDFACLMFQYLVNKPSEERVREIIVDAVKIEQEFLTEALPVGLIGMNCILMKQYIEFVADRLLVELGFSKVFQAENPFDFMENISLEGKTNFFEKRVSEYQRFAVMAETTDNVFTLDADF
- Sequence (P31350 whole entry): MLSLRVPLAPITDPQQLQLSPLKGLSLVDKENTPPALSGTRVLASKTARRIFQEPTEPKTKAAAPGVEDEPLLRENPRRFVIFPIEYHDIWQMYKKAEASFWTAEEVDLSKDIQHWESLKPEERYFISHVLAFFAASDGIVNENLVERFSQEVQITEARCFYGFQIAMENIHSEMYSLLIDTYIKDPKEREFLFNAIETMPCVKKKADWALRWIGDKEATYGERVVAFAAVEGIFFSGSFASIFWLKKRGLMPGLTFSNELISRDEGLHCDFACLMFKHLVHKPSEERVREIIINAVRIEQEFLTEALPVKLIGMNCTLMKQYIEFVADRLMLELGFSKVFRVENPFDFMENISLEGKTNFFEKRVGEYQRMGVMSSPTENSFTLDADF
- assay-remarks: Inhibition of mammalian ribonucleotide reductase (mRR)

# line-notation, IC50, µM
measured = [
    ("CC(C)CO[C@@H]1C[C@@H]2[C@@H]([C@@H](COC(=O)CCC3c4ccccc4-c4ccccc43)O1)N(CC(=O)N[C@@H](CC(=O)O)C(=O)N[C@@H](Cc1ccccc1)C(=O)O)C[C@H]2O", 40),
]
